target: human CD33 S305A (human, UniProt P20138 18-364); test: alanine scan, flow cytometry, HEK293-T;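 further: antibody binding to each alanine-substituted CD33 mutant expressed transiently in HEK293-T, read as fluorescence minus background, mean of duplicates, relative to wild-type CD33 set as 100%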
Sequence (P20138 18-364 S305A limits assumed): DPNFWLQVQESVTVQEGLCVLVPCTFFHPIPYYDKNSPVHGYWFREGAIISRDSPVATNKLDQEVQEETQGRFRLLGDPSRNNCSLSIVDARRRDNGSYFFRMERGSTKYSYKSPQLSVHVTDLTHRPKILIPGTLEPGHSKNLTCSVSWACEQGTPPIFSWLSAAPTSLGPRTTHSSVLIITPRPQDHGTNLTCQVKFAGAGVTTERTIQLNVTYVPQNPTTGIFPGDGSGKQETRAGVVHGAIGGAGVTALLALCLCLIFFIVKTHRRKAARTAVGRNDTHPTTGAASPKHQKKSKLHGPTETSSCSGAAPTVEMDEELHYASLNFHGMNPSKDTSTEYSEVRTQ
Readings of Mean % WT Binding for the listed binders
Field: numeric (% WT binding). Do not append units.

Examples with their reported Mean % WT Binding follow.
binder: Refmab #3 (antibody, V domains shown, The alanine scan used IgG or Fab) VH: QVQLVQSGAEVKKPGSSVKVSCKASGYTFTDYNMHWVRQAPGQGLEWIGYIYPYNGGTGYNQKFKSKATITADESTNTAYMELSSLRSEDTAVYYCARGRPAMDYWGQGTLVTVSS VL: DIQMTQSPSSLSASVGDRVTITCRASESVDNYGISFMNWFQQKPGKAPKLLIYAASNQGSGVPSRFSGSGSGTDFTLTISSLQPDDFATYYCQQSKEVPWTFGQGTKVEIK
Mean % WT Binding (% WT binding): 103

binder: Refmab #4 (antibody, V domains shown, The alanine scan used IgG or Fab) VH: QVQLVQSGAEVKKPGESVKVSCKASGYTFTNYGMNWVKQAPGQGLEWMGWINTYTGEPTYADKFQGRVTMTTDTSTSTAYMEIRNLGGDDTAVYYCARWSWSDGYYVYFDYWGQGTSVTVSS VL: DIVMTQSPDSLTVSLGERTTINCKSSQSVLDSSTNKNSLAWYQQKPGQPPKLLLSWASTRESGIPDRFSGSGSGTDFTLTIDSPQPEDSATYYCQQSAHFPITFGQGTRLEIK
Mean % WT Binding (% WT binding): 104

binder: Refmab #1 (antibody, V domains shown, The alanine scan used IgG or Fab; also called hP67.6) VH: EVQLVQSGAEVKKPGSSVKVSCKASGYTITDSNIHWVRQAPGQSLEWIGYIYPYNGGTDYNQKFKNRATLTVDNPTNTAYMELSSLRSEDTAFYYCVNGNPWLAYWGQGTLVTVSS VL: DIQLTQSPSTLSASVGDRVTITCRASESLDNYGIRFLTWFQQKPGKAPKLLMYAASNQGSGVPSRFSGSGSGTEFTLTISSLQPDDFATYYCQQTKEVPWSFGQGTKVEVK
Mean % WT Binding (% WT binding): 86.4

Next:
Quick check: Mean % WT Binding of Refmab #2 (antibody, V domains shown, The alanine scan used IgG or Fab) VH: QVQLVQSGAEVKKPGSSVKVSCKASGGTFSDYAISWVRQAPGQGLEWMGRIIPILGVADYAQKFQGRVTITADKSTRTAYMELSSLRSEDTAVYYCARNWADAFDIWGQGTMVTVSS VL: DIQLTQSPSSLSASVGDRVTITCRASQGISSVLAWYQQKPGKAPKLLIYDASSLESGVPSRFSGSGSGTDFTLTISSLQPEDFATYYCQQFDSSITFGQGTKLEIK ?
107
